experiment: Ex vivo biodistribution / in vivo GRPR targeting in PC-3 tumor-bearing mice; design: species or system Balb/c nu/nu mice; details: Balb/c nu/nu, mouse, liver, total radioactivity; PC-3 xenografts, 1 h pi, 40 pmol / 30 kBq co-injected with 5 nmol NOTA-PEG2-RM26, average ± SD, n = 4; read-out: Uptake in liver, blocked
Where a SMILES comes first, the peptide text is derived from it. [ ]: non-standard residue; d: D form. The star is where a group is joined. Sta = CC(C)C[C@H](N)[C@@H](O)CC(=O)O; Mercaptoacetyl = O=C(CS)*; AEEA = NCCOCCOCC(=O)O
Parameter measured: tissue uptake at 1 h (%ID/g)
One number for each entry, in %ID/g.

Request: tissue uptake at 1 h for CC(C)C[C@H](NC(=O)C[C@H](O)[C@H](CC(C)C)NC(=O)[C@H](Cc1c[nH]cn1)NC(=O)CNC(=O)[C@@H](NC(=O)[C@H](C)NC(=O)[C@H](Cc1c[nH]c2ccccc12)NC(=O)[C@H](CCC(N)=O)NC(=O)[C@@H](Cc1ccccc1)NC(=O)COCCOCCNC(=O)[C@H](CO)NC(=O)[C@H](CO)NC(=O)[C@H](CO)NC(=O)CS)C(C)C)C(N)=O [[^99mTc]Tc-maSSS-PEG2-RM26, metal not drawn] (Mercaptoacetyl-SSS[AEEA][dF]QWAVGH[Sta]L-NH2) ?
Result: 1.7
